- METHOD: DHB dehydrogenase activity of cytosolic enzymes (DHB-dependent reduction of NAD+)
- Format: biochemical
- CONDITION_PARAMETERS: activity measured at 50 mM DHB; Table 4
MEASUREMENT_KIND: Max. specific activity, DHB (µmol/mg/min)
Field format: number, assumed µmol/mg/min, no unit text.

// field: Max. specific activity, DHB; key: Ec-MdhR81A M85E: E. coli malate dehydrogenase mutant R81A M85E, SEQ ID No 160 (protein, listed as Escherichia coli) MKVAVLGAAGGIGQALALLLKTQLPSGSELSLYDIAPVTPGVAVDLSHIPTAVKIKGFSGEDATPALEGADVVLISAGVAAKPGEDRSDLFNVNAGIVKNLVQQVAKTCPKACIGIITNPVNTTVAIAAEVLKKAGVYDKNKLFGVTTLDIIRSNTFVAELKGKQPGEVEVPVIGGHSGVTILPLLSQVPGVSFTEQEVADLTKRIQNAGTEVVEAKAGGGSATLSMGQAAARFGLSLVRALQGEQGVVECAYVEGDGQYARFFSQPLLLGKNGVEERKSIGTLSAFEQNALEGMLDTLKKDIALGEEFVNK ; value = 2.38
